Entries and their binding signal
targetEntity: MBP-FoxP1dN (Mus musculus, UniProt P58462 326-579)
Sequence: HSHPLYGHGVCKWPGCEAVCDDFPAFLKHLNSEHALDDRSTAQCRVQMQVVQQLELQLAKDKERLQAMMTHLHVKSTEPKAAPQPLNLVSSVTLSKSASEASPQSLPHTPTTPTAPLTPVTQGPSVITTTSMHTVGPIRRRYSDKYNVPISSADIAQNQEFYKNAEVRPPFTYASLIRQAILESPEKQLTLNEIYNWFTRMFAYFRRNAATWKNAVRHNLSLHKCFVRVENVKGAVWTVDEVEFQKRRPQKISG
testProtocol: PD-seq (MBP pull-down with sequencing); 20 mM Tris-HCl pH 7.5, 100 mM NaCl, 1.5 mM MgCl2, 0.4 uM protein, 0.1 uM dsDNA library, 30 min, room temperature, amylose pull-down; high values mean tight binding
measurementContext: protein: recombinant; tags: His6-MBP; chain copies: 2; dsDNA, one strand shown
The full ranking holds about 16,000 sequences; the median of “rpm ratio (pull-down/input)” is about 0.94, and the highest 2% start at about 1.7. The list comes from a sample in which the highest values are over-represented; it also holds close analogues and randomly drawn sequences.

A selection of reference data follows.
GATGATTGTTCTCCCAGCTGATGAATTAAAAGTCTCGAGTAAACAAATTTTCCTAATCTTTCTGTTCAAGCGCCATCTAC    0.816 RPM ratio (pull-down/input)
GATGATTGTTCTCCCAGCTGATGAATTACATATATCGAGTAAACAAATTTTCCTAATCTTTCTGTTCAAGCGCCATCTAC    1.34 RPM ratio (pull-down/input)
GATGATTGTTCTCCCAGCTGATGAATTAGGCTTGTCGAGTAAACAAATTTTCCTAATCTTTCTGTTCAAGCGCCATCTAC    0.93 RPM ratio (pull-down/input)

API: the following record is the query input.
Memo: GATGATTGTTCTCCCAGCTGATGAATTACTGATATCGAGTAAACAAATTTTCCTAATCTTTCTGTTCAAGCGCCATCTAC , reported binding signal: 1.18 RPM ratio (pull-down/input)
